B1: STK38L (parent)
chain: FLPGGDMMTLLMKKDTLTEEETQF

variants of: B1; assay: protein stability index of a GFP-peptide fusion (GPS, HEK-293T) (PSI 1-6); higher = more stable; conditions: c terminus: a fixed tail appended;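 note: lentivirally expressed fusions sorted by FACS into six bins by GFP to DsRed ratio, PSI derived from sequencing read proportions per bin multiplied by bin number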
Fulfilled means recorded protein stability index is 3 or above; Not fulfilled means it is below 3.

// below: answered variants
- sequence-variant: "T22K"
  assigned-category: "Not fulfilled"
- sequence-variant: "E21K"
  assigned-category: "Not fulfilled"
- sequence-variant: "K14A"
  assigned-category: "Not fulfilled"
- sequence-variant: "Q23L"
  assigned-category: "Not fulfilled"
- sequence-variant: "L11I"
  assigned-category: "Not fulfilled"
- sequence-variant: "K13S"
  assigned-category: "Not fulfilled"

Does protein stability index meet or surpass 3 for `T22F` ?
Not fulfilled

Also check `G4E`
Fulfilled

Next up: `E20T`
Not fulfilled

Try this variant next: `L11R`
Fulfilled

Try this variant too: `L10Q`
Fulfilled
